The following binders are listed with their measured IC50 (µg/mL), pseudovirus neutralization values.
# TARGET_UNDER_TEST: HIV-1 APV-6 Env (clade B pseudovirus) (HIV-1)
# ASSAY_PROTOCOL: cell-based or functional assay

BINDER	VALUE_UNITS	REPORTED_RELATION	IC50 (µg/mL), pseudovirus neutralization
1460_G14 (PGG14) (antibody, human IgG1, kappa, V domains shown) VH: QVLLVQSGTEVKKPGSSVKVSCQASGGAFSSYAFSWVRQAPGQGLEWMGMITPVFGETKYAPRFQGRLTLTAEESLSTTYMELRSLTSDDTAFYYCTRDRRVVPMATDNWLDPWGQGTLVTVSS VL: DIQLTQSPSSLSASVGDRVTVTCRASQTIHTYLNWYQQIPGKAPKLLIYGASTLQSGVPSRFSGSGSGTDFTLTINSLQPEDFATYYCQQSYSTPRTFGQGTRLDIKR	µg/mL	>	50
1495_C14 (PGC14) (antibody, human IgG1, lambda, V domains shown) VH: DGHLVQSGVEVKKTGATVKISCKVSGYSFIDYYLHWVQRAPGKGLEWVGLIDPENGEARYAEKFQGRVTIIADTSIDTGYMEMRSLKSEDTAVYFCAAGAVGADSGSWFDPWGQGTLVTVSS VL: SYELTQPPSVSVSPGQTASITCSGSKLGDKYVSWYQLRPGQSPILVMYENDRRPSGIPERFSGSNSGDTATLTISGTQALDEADFYCQAWETTTTTFVFFGGGTQLTVLG	µg/mL	=	7.41
1456_P20 (PG20) (antibody, human IgG1, kappa, V domains shown) VH: QVRLVQSGPEVKKPGSSVTVSCQASGGTFSSYAFTWVRQAPGQGLEWLGMVTPIFGEAKYSQRFEGRVTITADESTSTTSIELRGLTSEDTAIYYCARDRRAVPIATDNWLDPWGQGTLVTVSS VL: DIQLTQSPSSLSASVGDRVSITCRASQTINNYLNWYQQTPGKAPKLLIYGASNLQNGVPSRFSGSGSGTDFTLTISSLQPEDFATYYCQQSFSTPRTFGQGTRLDIKR	µg/mL	=	25.8
1496_C09 (PG9) (TCN-109) (antibody, V domains shown) VH: QRLVESGGGVVQPGSSLRLSCAASGFDFSRQGMHWVRQAPGQGLEWVAFIKYDGSEKYHADSVWGRLSISRDNSKDTLYLQMNSLRVEDTATYFCVREAGGPDYRNGYNYYDFYDGYYNYHYMDVWGKGTTVTVSS VL: QSALTQPASVSGSPGQSITISCNGTSNDVGGYESVSWYQQHPGKAPKVVIYDVSKRPSGVSNRFSGSKSGNTASLTISGLQAEDEGDYYCKSLTSTRRRVFGTGTKLTVLG	µg/mL	=	0.09
1443_C16 (PG16) (TCN-116) (antibody, V domains shown) VH: QEQLVESGGGVVQPGGSLRLSCLASGFTFHKYGMHWVRQAPGKGLEWVALISDDGMRKYHSDSMWGRVTISRDNSKNTLYLQFSSLKVEDTAMFFCAREAGGPIWHDDVKYYDFNDGYYNYHYMDVWGKGTTVTVSS VL: QSALTQPASVSGSPGQTITISCNGTSSDVGGFDSVSWYQQSPGKAPKVMVFDVSHRPSGISNRFSGSKSGNTASLTISGLHIEDEGDYFCSSLTDRSHRIFGGGTKVTVLG	µg/mL	=	0.08
